system: MONO-MAC-6; test: Cytostatic activity against human MONO-MAC-6 cells assessed as cell viability after 16 hrs by MTT assay; type: cell-based; details: MONO-MAC-6, 16 h
// NB: equality with 5 µM counts as no; only IC50 strictly below is yes

LINE NOTATION: O=C(NCCCl)Oc1ccc(Cl)cc1C(=O)Nc1ccc(C(F)(F)F)cc1
DISCRETE LABEL: no
--
LINE NOTATION: O=C(Nc1ccc(Cl)c(Cl)c1)c1cc(Cl)ccc1O
DISCRETE LABEL: yes
--
LINE NOTATION: O=C(NCCCl)Oc1ccc(Br)cc1C(=O)Nc1ccc(C(=O)c2ccccc2)cc1
DISCRETE LABEL: no
--
LINE NOTATION: O=C(NCCCCl)Oc1ccc(Cl)cc1C(=O)Nc1ccc(C(F)(F)F)cc1
DISCRETE LABEL: no
--
LINE NOTATION: CCCNC(=O)Oc1ccc(Cl)cc1C(=O)Nc1ccc(C(=O)c2ccccc2)cc1
DISCRETE LABEL: no
--
LINE NOTATION: O=C(NCCCl)Oc1ccc(Cl)cc1C(=O)Nc1ccc(C(=O)c2ccccc2)cc1
DISCRETE LABEL: no
--
LINE NOTATION: O=C(Oc1ccc(Cl)cc1C(=O)Nc1ccc(Cl)c(Cl)c1)c1cnc(Cl)cn1
DISCRETE LABEL: no
--
LINE NOTATION: O=C(NCCCCl)Oc1ccc(Br)cc1C(=O)Nc1ccc(C(F)(F)F)cc1
DISCRETE LABEL: no
--
LINE NOTATION: O=C(Nc1ccc(Cl)c(Cl)c1)c1cc(Br)ccc1O
DISCRETE LABEL: yes
--
LINE NOTATION: O=C(c1ccccc1)c1ccc(NC(=O)c2cc(Br)ccc2O)cc1
DISCRETE LABEL: no
--
LINE NOTATION: O=C(NCCCCl)Oc1ccc(Br)cc1C(=O)Nc1ccc(Cl)c(Cl)c1
DISCRETE LABEL: no
--
LINE NOTATION: O=C(Oc1ccc(Br)cc1C(=O)Nc1ccc(Cl)c(Cl)c1)c1cnc(Cl)cn1
DISCRETE LABEL: no
--
LINE NOTATION: O=C(NCCCCl)Oc1ccc(Cl)cc1C(=O)Nc1ccc(C(=O)c2ccccc2)cc1
DISCRETE LABEL: no
--
LINE NOTATION: O=C(NCCCl)Oc1ccc(Br)cc1C(=O)Nc1ccc(C(F)(F)F)cc1
DISCRETE LABEL: no
--
LINE NOTATION: O=C(Oc1ccc(Cl)cc1C(=O)Nc1ccc(C(F)(F)F)cc1)c1cnc(Cl)cn1
DISCRETE LABEL: yes
--
LINE NOTATION: O=C(NCCCCl)Oc1ccc(Br)cc1C(=O)Nc1ccc(C(=O)c2ccccc2)cc1
DISCRETE LABEL: no
--
LINE NOTATION: O=C(NCCCCl)Oc1ccc(Cl)cc1C(=O)Nc1ccc(Cl)c(Cl)c1
DISCRETE LABEL: yes
--
LINE NOTATION: O=C(NCCCl)Oc1ccc(Br)cc1C(=O)Nc1ccc(Cl)c(Cl)c1
DISCRETE LABEL: no
--
LINE NOTATION: O=C(Nc1ccc(C(F)(F)F)cc1)c1cc(Cl)ccc1O
DISCRETE LABEL: no
--
LINE NOTATION: O=C(NCCCl)Oc1ccc(Cl)cc1C(=O)Nc1ccc(Cl)c(Cl)c1
DISCRETE LABEL: yes
--
LINE NOTATION: O=C(Oc1ccc(Br)cc1C(=O)Nc1ccc(C(F)(F)F)cc1)c1cnc(Cl)cn1
DISCRETE LABEL: yes
